Target: Alkaline phosphatase, placental type (Homo sapiens)
Assay: activation of human placental alkaline phosphatase – biochemical, luminescence, HTS (AID 696)
Conditions: purified PLAP enzyme, luminescent substrate read-out; at 20 µM
The whole screen tested about 96,000 compounds, of which about 1,200 (1.2%) were called active. No stated cut-off is given here; in the data, active means activation fold above about 2; inactive means the rest. This is one part of a sample in which actives are shown more often than they occur.
Answer with one of the outcomes active, inactive

>>> print(df.to_string())
                                 mol_smiles                           measured_target  group_label
0          COc1ccc(C(=O)CSc2n[nH]c(N)n2)cc1  Alkaline phosphatase, placental type (Homo sapiens)     inactive
1  Cc1[nH]n(-c2cccc(Cl)c2)c(=O)c1-c1ccc(Cl)cc1  Alkaline phosphatase, placental type (Homo sapiens)     inactive
2  COc1cc(NS(=O)(=O)c2ccc(N=Cc3c(C)[nH]n(-c4ccccc4)c3=O)cc2)nc(OC)n1  Alkaline phosphatase, placental type (Homo sapiens)     inactive
3                 Nc1nc(SCc2ccccc2Cl)n[nH]1  Alkaline phosphatase, placental type (Homo sapiens)     inactive
4        CCOc1cccc(-n2nnnc2-c2ccc(OC)cc2)c1  Alkaline phosphatase, placental type (Homo sapiens)     inactive

Ask: Test call, this compound: `CC(=O)c1sc(NC(=O)c2ccc(C)cc2)nc1C`
Reply: inactive

Ask: Recorded call for `Nc1nc(SCCOc2ccccc2)n[nH]1` ?
Reply: active
